# key: entry, value: Inhibition
MEASURED_ON: Plasminogen activator inhibitor 1 (Homo sapiens, UniProt P05121)
Sequence (P05121 whole entry): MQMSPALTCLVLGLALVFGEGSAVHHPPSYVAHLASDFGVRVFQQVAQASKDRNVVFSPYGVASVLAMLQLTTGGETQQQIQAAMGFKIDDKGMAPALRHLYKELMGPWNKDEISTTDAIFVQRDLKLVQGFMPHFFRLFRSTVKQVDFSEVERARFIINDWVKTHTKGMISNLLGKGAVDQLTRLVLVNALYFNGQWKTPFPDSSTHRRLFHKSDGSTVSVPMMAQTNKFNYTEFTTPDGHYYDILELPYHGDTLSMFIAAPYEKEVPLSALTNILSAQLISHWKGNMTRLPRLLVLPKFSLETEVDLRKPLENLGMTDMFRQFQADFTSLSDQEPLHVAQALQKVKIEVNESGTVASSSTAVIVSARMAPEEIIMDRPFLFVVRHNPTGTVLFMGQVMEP
ASSAY_NAME: Percentage inhibitory activity against Plasminogen activator inhibitor-1 at 25 uM

- LINE_NOTATION: "Cc1cccc(Nc2ccc3c(c2)c(-c2ccccc2)c(C(=O)O)n3Cc2ccccc2)c1"
  Inhibition (%): 69
- LINE_NOTATION: "CC(C)(C)c1ccc(Nc2ccc3c(c2)c(-c2ccccc2)c(C(=O)O)n3Cc2ccc(-c3ccccc3)cc2)cc1"
  Inhibition (%): 80
- LINE_NOTATION: "O=C(Nc1ccc(Cl)c(Cl)c1)c1ccc(CNc2cc([N+](=O)[O-])ccc2C(=O)O)cc1"
  Inhibition (%): 51
- LINE_NOTATION: "Cn1c(C(=O)O)c(-c2ccccc2)c2cc(NS(=O)(=O)c3ccc(OC(F)(F)F)cc3)ccc21"
  Inhibition (%): 19
- LINE_NOTATION: "O=C(O)c1cc2cc(NS(=O)(=O)c3ccc(-c4ccccc4)cc3)ccc2n1Cc1ccccc1"
  Inhibition (%): 49
- LINE_NOTATION: "Cc1ccc(C)n1-c1ccc2c(c1)c(-c1ccccc1)c(C(=O)O)n2Cc1ccccc1"
  Inhibition (%): 83
- LINE_NOTATION: "O=C(Nc1ccc2c(c1)c(-c1ccccc1)c(C(=O)O)n2Cc1ccccc1)Nc1ccc(F)cc1F"
  Inhibition (%): 61
- LINE_NOTATION: "O=C(O)c1c(-c2ccccc2)c2cc(NS(=O)(=O)c3ccccc3)ccc2n1Cc1ccc(-c2ccccc2)cc1"
  Inhibition (%): 87
- LINE_NOTATION: "CC(C)(C)c1ccc(S(=O)(=O)Nc2ccc3c(c2)c(-c2ccccc2)c(C(=O)O)n3Cc2ccccc2)cc1"
  Inhibition (%): 82
- LINE_NOTATION: "O=C(O)c1c(-c2ccccc2)c2cc(NS(=O)(=O)c3ccc(-c4ccccc4)cc3)ccc2n1Cc1ccccc1"
  Inhibition (%): 61
- LINE_NOTATION: "Cn1c(C(=O)O)c(-c2ccccc2)c2cc(NS(=O)(=O)c3cccc4cccnc34)ccc21"
  Inhibition (%): 1
- LINE_NOTATION: "Cn1c(C(=O)O)c(-c2ccccc2)c2cc(NS(=O)(=O)c3ccc(C(C)(C)C)cc3)ccc21"
  Inhibition (%): 46
- LINE_NOTATION: "O=C(O)C(=O)c1cn(Cc2ccccc2)c2ccc(-c3ccc(OC(F)(F)F)cc3)cc12"
  Inhibition (%): 47
- LINE_NOTATION: "O=C(O)c1c(-c2ccccc2)c2cc(Nc3ccc(-c4ccccc4)cc3)ccc2n1Cc1ccccc1"
  Inhibition (%): 71
- LINE_NOTATION: "O=C(O)c1c(-c2ccccc2)c2cc(-n3cccc3)ccc2n1Cc1ccccc1"
  Inhibition (%): 69
- LINE_NOTATION: "Cn1c(C(=O)O)c(-c2ccccc2)c2cc(NS(=O)(=O)c3ccc(-c4ccccc4)cc3)ccc21"
  Inhibition (%): 68
- LINE_NOTATION: "O=C(Nc1ccc2c(c1)c(-c1ccccc1)c(C(=O)O)n2Cc1ccccc1)c1ccc(F)cc1F"
  Inhibition (%): 43
- LINE_NOTATION: "O=C(O)c1c(-c2ccccc2)c2cc(NS(=O)(=O)c3ccc(OC(F)(F)F)cc3)ccc2n1Cc1ccccc1"
  Inhibition (%): 81
- LINE_NOTATION: "CC(C)(C)c1ccc(Nc2ccc3c(c2)c(-c2ccccc2)c(C(=O)O)n3Cc2ccccc2)cc1"
  Inhibition (%): 73
- LINE_NOTATION: "O=C(O)c1c(-c2ccccc2)c2cc(NS(=O)(=O)c3cccc4cccnc34)ccc2n1Cc1ccccc1"
  Inhibition (%): 43
